For each entry below, report its TGI value.
Tested on: LOX IMVI melanoma
assayText: NCI tumour cell line growth inhibition, 48 h
State just the number; it will be interpreted in µM.

Req: Hello, I am looking for reported TGI with LOX IMVI melanoma for `NC1c2ccccc2Nc2ccccc21` . Could you help?
Resp: 13.2

Req: Hello, I am looking for reported TGI with LOX IMVI melanoma for N#CC1=C(N)Oc2c(ccc3ccccc23)C1c1cc(=O)oc2ccc(Cl)cc12 (stereo unspecified) . Could you help?
Resp: 40.5

Req: Hello, I am looking for reported TGI with LOX IMVI melanoma for COC1=CC(C2c3cc4c(cc3[C@@H](Nc3ccc(F)cc3)C3COC(=O)[C@H]23)OCO4)=CC(=O)C1=O (stereo partly specified) . Could you help?
Resp: 35.6

Req: Hello, I am looking for reported TGI with LOX IMVI melanoma for `C#CC1=CC(=O)C(OC)=CC1=O` . Could you help?
Resp: 40

Req: Hello, I am looking for reported TGI with LOX IMVI melanoma for CCSC1=CC2(O)N(CCc3ccc(OC)c(OC)c3)C(=O)CC2(C(=O)OC)CC1=O (stereo unspecified) . Could you help?
Resp: 37.3
